Every entry's value here was drawn from PubChem BioAssay.

assay: inhibition of 3D7 malaria parasite growth – strain 3D7 (AID 2306);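 further: 0% = DMSO wells and 100% = chloroquine plus artemisinin control wells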; details: P. falciparum 3D7 erythrocytic growth, LDH absorbance, 72 h; at 2 µM; stronger effect = higher value
observedProperty: growth inhibition (%)

| compound | observedProperty | readoutNumber |
| --- | --- | --- |
| Cc1cc(NCCC(=O)Nc2ccccc2)nc(NCC2CCCCC2)n1 | growth inhibition | 100 |
| CCN1CCC(N(Cc2ccc(-c3ccc(C(F)(F)F)cc3)cc2)C(=O)CCCCn2c(CCc3cccc(F)c3F)nc(=O)c3ccccc32)CC1 | growth inhibition | 90 |
| CC(C)CCN1CCC(Oc2ccc(NC(=O)c3ccsc3)cc2Cl)CC1 | growth inhibition | 89 |
| O=S(=O)(Nc1cccc(CCN2CCCCC2CCN2CCCC2)c1)c1ccc(Oc2ccccc2)cc1 (centres undefined) | growth inhibition | 94 |
| CNCc1cccc2[nH]c(-c3csc(Cc4cc(Cl)ccc4OCC(C)C)n3)nc12 | growth inhibition | 100 |
| O=c1ccc(CNc2nc(NCCc3ccccc3)nc3ccc(Cl)cc23)c[nH]1 | growth inhibition | 99 |
| CCOc1ccc2c(c1)OC(c1ccccc1)(C(F)(F)F)NC2=O (centres undefined) | growth inhibition | 100 |
| CC(C)CC(C)NC(=O)C1Cc2c([nH]c3ccc(F)cc23)C2(CCN(Cc3ccccc3)CC2)N1 (centres undefined) | growth inhibition | 97 |
| Cc1[nH]c(C)c(-c2ccc(OCc3cccc(C(F)(F)F)c3)nc2)c(=O)c1Br | growth inhibition | 99 |
| CN1CCC[C@H]1COc1ccc(CN2CC[C@H](NC(=O)c3ccc(Cl)c(Cl)c3)C2)c2ccccc12 | growth inhibition | 101 |
| c1ccc(-c2cc3cccc(-c4nc5ccncc5[nH]4)c3o2)cc1 | growth inhibition | 100 |
| CCN(CC)CCN1C(=O)c2oc3ccc(Cl)cc3c(=O)c2C1c1ccc(SC)cc1 (centres undefined) | growth inhibition | 98 |
| Cc1cccc2[nH]c(-c3ccc(-c4cccc(NC(=O)C(C)CN5CCN(C)CC5)c4)s3)nc12 (centres undefined) | growth inhibition | 97 |
| COC(=O)C(c1ccc(NC(=O)[C@H](CC(C)C)NC(=O)OC(C)(C)C)cc1)c1ccc(NC(=O)[C@H](CC(C)C)NC(=O)OC(C)(C)C)cc1 | growth inhibition | 94 |
| Cc1c(C)n(C2CCCC2)c2ncnc(OC3CCN(CC(=O)NCC4CC4)CC3)c12 | growth inhibition | 89 |
| COc1ccc(CCNCC(O)COc2nccc3c(S(=O)(=O)N4CCCNCC4)cccc23)cc1OC (centres undefined) | growth inhibition | 96 |
| CCOc1ccc(C(=O)N2CCOC(CCN3CCC(c4ccccc4)CC3)(c3ccc(Cl)c(Cl)c3)C2)cc1 (centres undefined) | growth inhibition | 88 |
| COc1cc2nc(Nc3ccc(C)cc3)nc(Nc3ccc(C)cc3)c2cc1OC | growth inhibition | 101 |
| COc1cc(N(Cc2ccc(F)cc2)C(=O)c2ccc(-c3ccccc3)cc2)ccc1OCCN1CCCC1 | growth inhibition | 93 |
